Biological target: LonP1 F547A/C637V (Homo sapiens, UniProt P36776, C637V/F547A)
Construct: hexa-histidine (N)
Sequence (P36776 68-959 F547A/C637V): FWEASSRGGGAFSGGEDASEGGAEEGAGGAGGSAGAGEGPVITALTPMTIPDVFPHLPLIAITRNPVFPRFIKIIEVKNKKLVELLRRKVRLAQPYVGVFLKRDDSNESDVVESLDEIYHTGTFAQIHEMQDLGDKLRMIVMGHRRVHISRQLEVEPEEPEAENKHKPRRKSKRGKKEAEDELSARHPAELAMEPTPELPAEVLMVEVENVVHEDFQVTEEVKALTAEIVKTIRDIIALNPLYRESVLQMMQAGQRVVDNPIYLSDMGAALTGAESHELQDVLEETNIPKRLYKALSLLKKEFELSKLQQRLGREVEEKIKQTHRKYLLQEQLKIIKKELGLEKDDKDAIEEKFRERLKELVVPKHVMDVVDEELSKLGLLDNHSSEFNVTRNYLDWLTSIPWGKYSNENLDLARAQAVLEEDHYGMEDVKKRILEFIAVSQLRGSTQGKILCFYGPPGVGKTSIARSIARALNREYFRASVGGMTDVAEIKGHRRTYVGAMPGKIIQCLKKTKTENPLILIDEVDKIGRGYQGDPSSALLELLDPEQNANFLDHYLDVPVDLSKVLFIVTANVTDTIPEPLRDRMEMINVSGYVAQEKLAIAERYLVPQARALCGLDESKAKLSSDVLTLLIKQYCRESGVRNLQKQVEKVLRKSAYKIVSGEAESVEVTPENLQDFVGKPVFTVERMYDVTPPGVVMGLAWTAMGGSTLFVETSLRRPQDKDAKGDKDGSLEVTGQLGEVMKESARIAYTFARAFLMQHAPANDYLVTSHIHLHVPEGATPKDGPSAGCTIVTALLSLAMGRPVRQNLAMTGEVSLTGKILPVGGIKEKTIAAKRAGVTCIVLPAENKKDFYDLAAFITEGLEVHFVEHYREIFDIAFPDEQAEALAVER
Test: Endpoint ATPase assay, LonP1 F547A/C637V
Conditions: end-point ATPase assay, read-out: CDDO IC50
Property: pIC50
Answers are plain numbers, as −log10 of the molar value.

Query: pIC50; subject: CC1(C)CC[C@]2(C(=O)O)CC[C@]3(C)[C@H](C(=O)C=C4[C@@]5(C)C=C(C#N)C(=O)C(C)(C)[C@@H]5CC[C@]43C)[C@@H]2C1 [CDDO]
Reply: 5.72

====

Target chain: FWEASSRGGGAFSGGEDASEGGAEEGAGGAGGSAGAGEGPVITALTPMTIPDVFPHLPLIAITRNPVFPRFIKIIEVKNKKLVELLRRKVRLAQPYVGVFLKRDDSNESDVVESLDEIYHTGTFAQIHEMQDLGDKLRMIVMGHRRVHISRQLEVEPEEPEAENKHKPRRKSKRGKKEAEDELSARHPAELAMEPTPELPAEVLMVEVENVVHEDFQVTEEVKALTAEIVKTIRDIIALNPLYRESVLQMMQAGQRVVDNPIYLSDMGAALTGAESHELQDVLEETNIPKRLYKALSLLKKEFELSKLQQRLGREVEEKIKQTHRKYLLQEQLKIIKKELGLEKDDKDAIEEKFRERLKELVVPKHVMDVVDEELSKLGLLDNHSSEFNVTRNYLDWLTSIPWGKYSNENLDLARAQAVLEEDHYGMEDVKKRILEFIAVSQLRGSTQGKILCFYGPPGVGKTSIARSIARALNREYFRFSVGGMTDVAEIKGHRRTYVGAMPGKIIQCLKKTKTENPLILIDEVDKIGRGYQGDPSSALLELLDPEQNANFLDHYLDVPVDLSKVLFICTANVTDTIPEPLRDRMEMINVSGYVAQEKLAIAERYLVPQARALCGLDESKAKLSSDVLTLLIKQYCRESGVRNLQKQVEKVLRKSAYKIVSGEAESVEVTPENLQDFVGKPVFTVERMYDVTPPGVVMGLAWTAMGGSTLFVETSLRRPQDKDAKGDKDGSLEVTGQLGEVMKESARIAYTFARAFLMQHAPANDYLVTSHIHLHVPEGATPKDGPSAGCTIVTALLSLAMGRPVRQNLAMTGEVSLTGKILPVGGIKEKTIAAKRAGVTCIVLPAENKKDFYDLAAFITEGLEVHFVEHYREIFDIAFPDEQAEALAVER
Property: pKi
Give bare numbers, as −log10 of the molar value.

{"columns": ["Compound", "pKi"],
 "data": [
  ["COC(=O)[C@]12CCC(C)(C)C[C@H]1[C@H]1C(=O)C=C3[C@@]4(C)C=C(C#N)C(=O)C(C)(C)[C@@H]4CC[C@@]3(C)[C@]1(C)CC2 [CDDO-Me]", 6.10]
]}

Each of the following entries comes with a recorded value; kindly state pKi for each.
1. CC1(C)CC[C@]2(C(=O)n3ccnc3)CC[C@]3(C)[C@H](C(=O)C=C4[C@@]5(C)C=C(C#N)C(=O)C(C)(C)[C@@H]5CC[C@]43C)[C@@H]2C1 [CDDO-Im]
2. CC1(C)CC[C@]2(C(=O)O)CC[C@]3(C)[C@H](C(=O)C=C4[C@@]5(C)C=C(C#N)C(=O)C(C)(C)[C@@H]5CC[C@]43C)[C@@H]2C1 [CDDO]

Reply:
[5.72, 5.59]

Query: What pKi value was documented for this compound, CC1(C)CC[C@]2(C(=O)OC(=O)[C@]34CCC(C)(C)C[C@H]3[C@H]3C(=O)C=C5[C@@]6(C)C=C(C#N)C(=O)C(C)(C)[C@@H]6CC[C@@]5(C)[C@]3(C)CC4)CC[C@]3(C)[C@H](C(=O)C=C4[C@@]5(C)C=C(C#N)C(=O)C(C)(C)[C@@H]5CC[C@]43C)[C@@H]2C1 [CDDO-anhydride] ?
Reply: 5.02

====

target: LonP1 C576S (Homo sapiens, UniProt P36776, C576S); construct: hexa-histidine (N); test: Endpoint ATPase assay, LonP1 C576S; details: end-point ATPase assay, N = 1, read-out: CDDO IC50
Property: IC50 (µM)
One number for each entry, in µM.

Query: Suppose we examine the compound CC1(C)CC[C@]2(C(=O)O)CC[C@]3(C)[C@H](C(=O)C=C4[C@@]5(C)C=C(C#N)C(=O)C(C)(C)[C@@H]5CC[C@]43C)[C@@H]2C1 ; what IC50 value has been reported?
Reply: 11.9
